# testedSystem: STAG2^R370Q–RAD21 complex (human | , UniProt Q8N3U4 1-1231; O60216 1-631, R370Q)
# Sequence (Q8N3U4 whole entry R370Q, chain 1 of 2): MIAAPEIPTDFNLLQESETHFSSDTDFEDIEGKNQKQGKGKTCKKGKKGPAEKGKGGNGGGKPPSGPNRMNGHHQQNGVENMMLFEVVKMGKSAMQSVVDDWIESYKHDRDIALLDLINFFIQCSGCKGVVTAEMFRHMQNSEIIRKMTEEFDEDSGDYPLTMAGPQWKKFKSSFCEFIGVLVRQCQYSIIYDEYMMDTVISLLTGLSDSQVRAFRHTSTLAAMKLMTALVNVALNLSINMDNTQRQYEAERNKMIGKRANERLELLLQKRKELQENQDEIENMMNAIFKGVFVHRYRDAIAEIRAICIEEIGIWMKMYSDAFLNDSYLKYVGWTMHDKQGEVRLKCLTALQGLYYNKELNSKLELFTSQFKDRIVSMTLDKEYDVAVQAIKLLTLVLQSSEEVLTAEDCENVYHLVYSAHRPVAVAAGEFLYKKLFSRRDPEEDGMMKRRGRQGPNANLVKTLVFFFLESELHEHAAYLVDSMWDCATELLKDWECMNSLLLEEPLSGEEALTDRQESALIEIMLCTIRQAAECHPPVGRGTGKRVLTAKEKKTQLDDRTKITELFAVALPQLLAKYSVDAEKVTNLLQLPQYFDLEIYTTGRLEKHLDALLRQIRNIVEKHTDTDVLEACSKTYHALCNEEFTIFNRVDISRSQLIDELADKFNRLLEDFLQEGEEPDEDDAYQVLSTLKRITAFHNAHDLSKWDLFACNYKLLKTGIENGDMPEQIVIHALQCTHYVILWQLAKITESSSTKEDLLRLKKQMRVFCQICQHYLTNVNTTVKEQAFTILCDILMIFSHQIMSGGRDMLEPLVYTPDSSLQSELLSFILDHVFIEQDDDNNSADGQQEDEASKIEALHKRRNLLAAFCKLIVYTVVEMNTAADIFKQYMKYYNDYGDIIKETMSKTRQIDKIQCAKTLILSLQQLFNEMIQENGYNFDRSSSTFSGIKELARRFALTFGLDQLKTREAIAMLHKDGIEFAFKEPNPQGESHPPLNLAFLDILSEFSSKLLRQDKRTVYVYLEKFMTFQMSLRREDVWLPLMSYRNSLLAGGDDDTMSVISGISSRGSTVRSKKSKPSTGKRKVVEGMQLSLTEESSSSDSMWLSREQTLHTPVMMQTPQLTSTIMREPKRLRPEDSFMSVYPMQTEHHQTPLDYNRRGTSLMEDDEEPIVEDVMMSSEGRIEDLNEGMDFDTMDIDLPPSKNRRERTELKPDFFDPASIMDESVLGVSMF
# Sequence (O60216 whole entry, chain 2 of 2): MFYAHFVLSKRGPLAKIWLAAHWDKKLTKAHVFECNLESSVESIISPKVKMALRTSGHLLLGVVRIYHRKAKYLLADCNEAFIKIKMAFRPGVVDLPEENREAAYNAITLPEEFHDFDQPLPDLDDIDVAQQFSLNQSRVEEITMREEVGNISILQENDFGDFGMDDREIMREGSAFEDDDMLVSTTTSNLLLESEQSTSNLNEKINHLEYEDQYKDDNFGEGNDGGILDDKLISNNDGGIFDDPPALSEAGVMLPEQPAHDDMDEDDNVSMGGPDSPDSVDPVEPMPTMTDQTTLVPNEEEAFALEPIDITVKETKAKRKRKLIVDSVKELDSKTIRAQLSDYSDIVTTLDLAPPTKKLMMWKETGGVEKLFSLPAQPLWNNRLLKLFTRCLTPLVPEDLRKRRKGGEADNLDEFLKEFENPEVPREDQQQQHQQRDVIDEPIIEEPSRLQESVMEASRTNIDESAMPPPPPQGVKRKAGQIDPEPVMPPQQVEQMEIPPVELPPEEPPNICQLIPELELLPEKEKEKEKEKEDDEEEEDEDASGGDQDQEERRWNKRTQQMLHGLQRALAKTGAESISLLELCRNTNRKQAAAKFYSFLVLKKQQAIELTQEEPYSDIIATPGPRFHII
# experiment: ITC
measuredParameter: Kd (µM)
# output: bare number, implied unit µM

Request: For the binder DVSVYDFEEE [CTCF peptide] , give its measured Kd value.
Result: 21.7
